Test system: HT-29 colorectal carcinoma
Assay: Cytotoxicity assay (monolayer), HT-29;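 note: monolayer cultures tested in triplicate, compound exposure for three days against DMSO vehicle controls, EC50 fitted from dose-response curves and averaged across all tests and lots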
Type: cell-based
Conditions: HT29, ML (monolayer); read-out: HT29 (EC50 Ave) ML
Primed or numbered codes have the meaning given here. * marks the point of attachment. 10Ca‑PXL = paclitaxel conjugated at C10 via a carbamate; 3Am‑VBL = vinblastine (VBL) conjugate; PEG(11) = PEG(11) linker; PEG(13) = PEG13 linker; Piv = CC(C)(C)C(=O)*
property_measured: EC50

Form entry - test system: HT-29 colorectal carcinoma; read-out: EC50; substance: BOC-EYIYGSFK(BOC)-PEG(11)-3Am-VBL (N-BOC; BOC side chain; PEG(11); vinblastine conjugate)
> 100 nM

Then what about the substance Pv-RLVAYEGYV-PEG(11)-3Am-VBL (Piv-RLVAYEGYV-{PEG(11)-3Am‑VBL}) ?
> 100 nM

Also Ph(C═O)-RPRTSSF-PEG(11)-3Am-VBL (N-benzoyl; PEG(11) linker; vinblastine conjugate) ?
20 to 100 nM

Okay, and Ac-RPRTSSF-PEG(11)-3Am-VBL (N-acetyl; PEG(11) linker; vinblastine conjugate) ?
20 to 100 nM

# iterate: BOC-YIYGSFK(BOC)-PEG(11)-3Am-VBL (N-BOC; BOC side chain; PEG(11); vinblastine conjugate)
20 to 100 nM

Please do the same for Pv-EYIYGSFR-PEG(13)-10Ca-PXL (Piv-EYIYGSFR-{PEG(13)-10Ca‑PXL}) as well.
> 100 nM

Also need Pv-RLVAYEGYV-PEG(13)-10Ca-PXL (Piv-RLVAYEGYV-{PEG(13)-10Ca‑PXL}) , thanks.
> 100 nM

Same lookup for BOC-YIYGSFS-PEG(11)-3Am-VBL (N-BOC; PEG(11) linker; vinblastine conjugate) , please.
> 100 nM
